# System: SK-MEL-5 melanoma
# experimental.protocol: NCI tumour cell line growth inhibition, 48 h; in the data active means GI50 below about 0.43 µM; inactive means the rest
Choose one outcome from this list and give only that: TRUE = active, FALSE = inactive

{"columns": ["chemical.string", "assigned.category"],
 "data": [
  ["O=C1CCC/C=C\\C[C@H]2C=CC(=O)/C2=C/C[C@H](CCc2cccc(C(F)(F)F)c2)O1", "FALSE"],
  ["COc1ccc2c(c1)O/C(=C\\c1ncc([N+](=O)[O-])n1C)C2=O", "TRUE"],
  ["COC(=O)[C@@]1(C)CCC[C@]2(C)[C@H]3Cc4occc4[C@H](C)[C@@H]3CC[C@@]12O", "FALSE"]
]}

Which outcome did this test record for the molecule `Nc1cc(N)c2nc(-c3ccccc3)c(NCCc3ccc(Cl)c(Cl)c3)nc2c1` ?
FALSE

----------
# System: 786-0 renal
# experimental.protocol: NCI tumour cell line growth inhibition, 48 h
Recorded TGI, one value per entry.

// worked examples, TGI included
{"columns": ["molecule", "result"],
 "data": [
  ["CC12c3c4cccc3Oc3cc(N)cc(c31)Oc1cc(N)cc(c12)O4", "8.72 µM"],
  ["COc1cc(/C=C2\\CCC/C(=C\\c3ccc(OC(=O)CCCCC4CCSS4)c(OC)c3)C2=O)ccc1OC(=O)CCCCC1CCSS1 (stereo unspecified)", "> 100 µM"],
  ["CCOC(=O)/C(=C/c1ccc(C(F)(F)F)cc1)N(CC)CC", "> 100 µM"],
  ["CC12CCCCC1C(=O)C2(Cl)Cl (stereo unspecified)", "4.73 µM"],
  ["COc1ccc(Cc2c(-c3ccc(C)cc3)n[nH]c(=O)c2C2C(=O)N(c3ccccc3)N=C2c2ccccc2)cc1 (stereo unspecified)", "> 100 µM"],
  ["COc1cc2c(cc1O)CC[C@@H]1[C@@H]2CC[C@]2(C)[C@@H](OCCCN(C)C)CC[C@@H]12", "0.201 µM"],
  ["CC(=O)Nc1c(Br)cc2c(c1Br)Cc1cc(Br)ccc1-2", "3.43 µM"],
  ["COc1cc2nc3c(=C(C#N)C#N)c4ccccc4n3c(=O)c2cc1OC", "> 100 µM"],
  ["C#CCCCCC#Cc1ccccc1C(=O)C=[N+]=[N-]", "> 100 µM"],
  ["O=C1C(Cl)C(c2cc(Br)ccc2O)N1n1cnc2ccccc2c1=O (stereo unspecified)", "> 100 µM"]
]}

// moving on: another record for TGI
The value of TGI measured for the molecule `C=C(C)c1nc(C#N)c(N)o1` turned out to be > 100 µM

----------
# Tested on: MCF7 breast
# experimental.protocol: NCI tumour cell line growth inhibition, 48 h
Recorded TGI, one value per entry.
Could you give me the number in µM? Just the number is fine.

// worked examples, TGI included
{"columns": ["compound", "TGI (µM)"],
 "data": [
  ["O=S(=O)(Nc1ccc(Cl)c(F)c1)c1ccc(-c2cnc(C3CC3)o2)cc1", 13.4],
  ["C/C=C/C1=CN2C(=O)c3cc(OC4OC(C)C(NC)C(C)(O)C4O)c(C)cc3N=C[C@@H]2C1 (some centres not stated)", 11.9],
  ["Nc1nc(/C=C\\c2ccc([N+](=O)[O-])s2)nc(N2CCOCC2)n1", 19.5]
]}

N#CC1=C(N)OC2=C(CCCc3ccccc32)C1c1ccc([N+](=O)[O-])cc1 (configuration not stated) tested on MCF7 breast gave TGI: 36.4

`O=C1OCC(C#Cc2ccccc2)=C1Br` tested on MCF7 breast gave TGI: 12.8
